- experimental.system: T1, soluble cynomolgus GPNMB (recombinant extracellular domain) (cynomolgus, UniProt Q14956 23-499 (human entry), limits assumed)
- T1 chain: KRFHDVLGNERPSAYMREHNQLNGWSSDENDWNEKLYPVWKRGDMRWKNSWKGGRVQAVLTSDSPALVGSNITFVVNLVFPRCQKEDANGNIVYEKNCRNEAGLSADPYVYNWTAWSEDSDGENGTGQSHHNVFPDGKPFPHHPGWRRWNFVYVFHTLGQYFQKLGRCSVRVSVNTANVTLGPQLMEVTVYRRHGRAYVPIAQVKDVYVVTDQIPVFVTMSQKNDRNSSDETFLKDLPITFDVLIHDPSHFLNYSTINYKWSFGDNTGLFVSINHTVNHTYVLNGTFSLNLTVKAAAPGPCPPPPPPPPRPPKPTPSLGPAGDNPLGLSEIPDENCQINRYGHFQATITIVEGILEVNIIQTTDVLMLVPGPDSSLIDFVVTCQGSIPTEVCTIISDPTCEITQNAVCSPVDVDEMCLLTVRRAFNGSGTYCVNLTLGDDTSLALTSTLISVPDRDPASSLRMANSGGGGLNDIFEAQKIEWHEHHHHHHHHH
- assay.details: SPR Biacore, IgG captured
This listing pairs binders with measured kon.
# output: bare number, implied unit M⁻¹ s⁻¹

Record excerpt, results attached:
# binder, reported.measurement
data = [
    ("anti-GPNMB antibody GPN-83 (antibody, V domains shown) VH: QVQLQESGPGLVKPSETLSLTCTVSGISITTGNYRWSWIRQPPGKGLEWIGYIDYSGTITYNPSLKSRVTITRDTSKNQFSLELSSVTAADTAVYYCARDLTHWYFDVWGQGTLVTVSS VL: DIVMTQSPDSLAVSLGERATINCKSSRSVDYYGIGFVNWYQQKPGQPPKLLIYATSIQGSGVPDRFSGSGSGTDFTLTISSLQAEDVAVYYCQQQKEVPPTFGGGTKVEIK", 170000),
    ("anti-GPNMB antibody GPN-87 (antibody, V domains shown) VH: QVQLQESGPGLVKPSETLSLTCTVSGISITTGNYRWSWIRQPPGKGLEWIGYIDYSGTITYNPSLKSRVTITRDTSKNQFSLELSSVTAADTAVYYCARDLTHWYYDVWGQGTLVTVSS VL: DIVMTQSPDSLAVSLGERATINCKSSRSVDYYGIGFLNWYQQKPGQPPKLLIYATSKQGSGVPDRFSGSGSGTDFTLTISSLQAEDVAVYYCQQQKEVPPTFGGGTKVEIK", 190000),
    ("anti-GPNMB antibody GPN-88 (antibody, V domains shown) VH: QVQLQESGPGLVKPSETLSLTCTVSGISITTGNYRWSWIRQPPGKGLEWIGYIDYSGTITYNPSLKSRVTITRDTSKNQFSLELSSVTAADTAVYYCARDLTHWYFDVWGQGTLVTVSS VL: DIVMTQSPDSLAVSLGERATINCKSSRSVDYYGIGFLNWYQQKPGQPPKLLIYATSHQGSGVPDRFSGSGSGTDFTLTISSLQAEDVAVYYCQQQKHVPPTFGGGTKVEIK", 160000),
]

Report kon for anti-GPNMB antibody GPN-89 (antibody, V domains shown) VH: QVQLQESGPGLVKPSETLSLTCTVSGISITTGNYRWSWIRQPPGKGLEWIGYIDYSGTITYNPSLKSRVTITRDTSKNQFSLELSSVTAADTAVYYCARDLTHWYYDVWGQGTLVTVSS VL: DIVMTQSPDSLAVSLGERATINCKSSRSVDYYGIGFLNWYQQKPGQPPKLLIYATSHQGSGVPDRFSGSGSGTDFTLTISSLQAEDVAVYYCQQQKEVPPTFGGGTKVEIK
170000

Data provenance: patent US20250270343A1
